Overview of recorded pKd for various binders
Biological target: T1, secretory phospholipase A2 (sPLA2) (Homo sapiens, UniProt P14555 P14555:21-144)
T1 sequence: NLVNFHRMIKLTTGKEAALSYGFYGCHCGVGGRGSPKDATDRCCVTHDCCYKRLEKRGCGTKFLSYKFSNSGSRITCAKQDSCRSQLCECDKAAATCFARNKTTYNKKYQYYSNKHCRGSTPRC
Assay: filter; monophasic; TBSC, 37 C
Conditions: tags: supplied by Eli Lilly
Schema: pKd number; meaning minus log10 of the concentration expressed in molar units.

The examples below pair each entry with its known result.
binder="11tF (ssRNA, 2'-F all C and U) RNA: GGGAGCUCAGAAUAAACGCUCAACUUACGGGUAAAGCCGAGAAAAUGUAUUGCUUCGACAUGAGGCCCGGAUCCGGC" measurement=8.15
binder="86tF (ssRNA, 2'-F all C and U) RNA: GGGAGCUCAGAAUAAACGCUCAACGCCUCAUGCCAAUGCGGGAGGGUGGGUGGUUCGACAUGAGGCCCGGAUCCGGC" measurement=7.92
binder="73tF (ssRNA, 2'-F all C and U) RNA: GGGAGCUCAGAAUAAACGCUCAACUUACAGUUCGGCUGAGAGAAGACGCAUACUUCGACAUGAGGCCCGGAUCCGGC" measurement=7.85

Here is another binder to look at.
Look at this binder and give its reported pKd. 72F (ssRNA, 2'-F all C and U) RNA: GGGAGCUCAGAAUAAACGCUCAAGACCUCUGCUUACAGCCCGGCUGAGACACUUCGACAUGAGGCCCGGAUCCGGC
8.25
